method-notes: label from the status in PepcDB records;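 further: failed if final PepcDB status was selected cloned or expressed and not failed if soluble or beyond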
measurement-kind: protein production

[[record]]
record_sequence = "MSSHPYVTQQNTPLADDTTLMSTTDLQSYITHANDTFVQVSGYTLQELQGQPHNMVRHPDMPKAAFADMWFTLKKGEPWSGIVKNRRKNGDHYWVRANAVPMVREGKISGYMSIRTRATDEE"
reported_value = "failed"

[[record]]
record_sequence = "MTKDRQIKKTKTAIYSAFIALLQKKEYSKITVRDMITLANVGRSTFYAHYESKEMLLKELCEELFHHLFRQKRNVTFEDYLVHILKHFEQNKDSIATLLLSNDPYFLLRFKNELEHDVYPNLRCKYIDKTTIPEVFLKQFVLSSFIETLKWWLHQRQRMSANELLKYYLELIK"
reported_value = "failed"

[[record]]
record_sequence = "MQGQNQQQAYDRGITIFSPDGRLYQVEYAREAVKRGTASIGVRTSDGVVLAVDKRIRSPLMERSSVEKIHKADDHIGIASAGHVADARQLIDFARRQAQVNQLRYGEPVGVETLTKEITDYIQQYTQVGGARPFGVALIIGGIVNGEPRLFETDPSGTPYEWKALAVGADRGDIRDYLEEHYDEGMDLDEGVDLALAALASVNDDELSPEGIGVATVDVETETFGQLTDEEKEAHLAEADLLDTGEDADDEAEDEDATEE"
reported_value = "failed"


###

method-notes: label from the status in PepcDB records
measurement-kind: protein production

[[record]]
record_sequence = "MASTIYTCKECGSDLNLNPNDLFPPDFYFEAGNKGTLSFAAVDAEKFRFEKEDKIMPFFETLNYWGIQRKRTKIKCTSCNHLIGYIYDDGPPLTGGIGQYGFGPSQVIPRAPRYRFKTKARQDGWQYGGLTAFWN"
measurement_kind = "protein production"
reported_value = "failed"

[[record]]
record_sequence = "MNLSFKIFDISNTQRSKAKKVQGKKYEIFLNENEHSLITPKVSFKEILRYYYLYPKNAIPSFKLPFFKPDLSGFSTPHITWLGHSSLFISFKEYKILIDPIFNTHASPISFINKAFKNAPVYNINDFNEIFAVIITHSHFDHLDAKSVKALKDKAKFFITPLKVGNYLKSYGVSEKKIIELDWWSGIEFGDLKIMATPAQHSSSRGDGKNKTLWASFVMEFLSVDKRVFFSADGGYFTHFKKIGEYFGSFDLACLESGQFNIAWPYSHSFPEQILKEAKDLNAKAVMPIHWGRFLAGTHAWNEVVKFLYENLDLPLITPKMGEAYEVGAKFKQDFWWKEELEHHHHHH"
measurement_kind = "protein production"
reported_value = "failed"

[[record]]
record_sequence = "MGRKRGNAIMEKTKIDIISGFLGAGKTTLIKKLLKDAFQGEQVVLIENEFGEIGIDGGFLKEAGIQIREMNSGCICCSLVGDFGASLKEVISKYHPDRILIEPSGVGKLSDVIKAVQGVEEETGLVLNSYTTVVDAKKCKMYMRNFGEFFNNQVEYAGAIIMSRTDIVDEAKAQASLELLREINSKAAIITTPIEKLEGKKLLEVMEHPVSLADELMEEEEVCPECGHVHEHGEHHHHDHDEECGCGHDHDHEEHEHHHHDHDEECGCGHDHAHEEHEHHHHDHDHECGCGHDHHDHHHHHADEVFTSWGRETIKKYTKENLEKMLEALSASDEYGIILRAKGMLPAEDGTWIYFDMVPEETEIREGAPEYTGRLCVIGSKLNEDKLAELFGL"
measurement_kind = "protein production"
reported_value = "failed"


###

method-notes: label from the status in PepcDB records
measurement-kind: protein production

[[record]]
record_sequence = "MNAPSLKEENALTITRVFDAPANLVFKVWTTPEHLARWWGPKGFTVPAITTDFREGGAWRGCIRSPEGQDYWAHGIYREIVAPSRIVLSFVWEEEGAIDTLITVTLEDVAGGTRLTFHQAPFTSAESRDSHAEGWSECMDRLVSYVAARKEEVQ"
measurement_kind = "protein production"
reported_value = "failed"

[[record]]
record_sequence = "MLGLHGRKPAQVIVEPVAKLMIKLKVTPNQLTLVSAGLTVGVALLLIPTGHLIWAAVLTGLFAAFDMIDGTVARMQGGGTKFGATLDATCDRITDGALFGAITWWLVYSYDAPQALVAASLVCLVASQVISYVKARGEASGFTMDGGLVERPERLIVSLVGLGLTGMGVPYAIDVALWALAAGSIYTVVQRLVMAGKSPLAKEFTKAPAGAKADYSNTK"
measurement_kind = "protein production"
reported_value = "failed"

[[record]]
record_sequence = "MLKFNKVFMYITASALSVSLWTCTSFAQQNKTGVTTASMLNMRENPSTSTKIIDQIPNGTKVDIIETSNGWYKISYNGKTGWVYGSYVKVTETPKLTVTDETILATLNKGSTGNSSTNSSTNNSAVNNSSSQVVDETIQKPAQNAASGENTENTVVKTGIVKASALNVRQGPGTSYSIINQLSNGAKVNIIKEESGWYQIKLANGSTGWVSGTYVNVNTTIASRGGLSENSAPAASNNSDVSGVRQQVVEYAKKFLGVKYVYGGNSPSQGFDCSGFVKYVFSNFGINLERVAASQAKQGTWVSKDQLLPGDLVFFDTDGGHNYINHSGIYIGDGKFIHASSGSGKKSVVISDLTSGFYANTYMTARRVLN"
measurement_kind = "protein production"
reported_value = "failed"


###

method-notes: label from the status in PepcDB records
measurement-kind: protein production

[[record]]
record_sequence = "MERKINRREKEKEYEGKHNSLEDTDQGKNCKSTLMTLNVGGYLYITQKQTLTKYPDTFLEGIVNGKILCPFDADGHYFIDRDGLLFRHVLNFLRNGELLLPEGFRENQLLAQEAEFFQLKGLAEEVKSRWEKEQLTPRETTFLEITDNHDRSQGLRIFCNAPDFISKIKSRIVLVSKSRLDGFPEEFSISSNIIQFKYFIKSENGTRLVLKEDNTFVCTLETLKFEAIMMALKCGFRLLTSLDCSKGSIVHSDALHFIK"
reported_value = "failed"

[[record]]
record_sequence = "ECPAVVAVVARGSEQNLQIRPARYSEESPWTSNGFEEKNFRSFFGRMEKHYRESTGESLMKDVYVMGLNNIEYPASLPLSSEGSSAIELGTSISSGRDNVISAIDRFESATGCTPKYLLAGYSQGVLIVDGYEEELIARDQYLGTLHIANPAQQVDDPTLVGHEVTTGGLASSVEPVEDNPFKVSYCLPGDIVCDRSFEQFSAAGSSIAAAQLSTGNIRPGRVHVQYFVTTQPWDEQIFDEVASWIEAA"
reported_value = "failed"

[[record]]
record_sequence = "MTAVETKKQYLTVFKEDGIAEIHLHINKSNSYDLEFYKEFNAAIDDIRFDPDIKVVIVMSDVPKFFSAGADINFLRSADPRFKTQFCLFCNETLDKIARSPQVYIACLEGHTVGGGLEMALACDLRFMGDEAGKIGLPEVSLGVLAGTGGTQRLARLIGYSRALDMNITGETITPQEALEIGLVNRVFPQAETRERTREYARKLANSATYAVSNIKLAIMNGKEMPLNVAIRYEGELQNLLFRSEDAKEGLSAFLEKRQPNWKGI"
reported_value = "not failed"

[[record]]
record_sequence = "KSNEIVELSVQKWINELRDANNKLQQEVSELKKKEVNLESSLSLLSSTLESTAIGIVAINFEGDILNYNQKFAEMWKLPQQLILSKKCPRCKAFFEGQMKDPETFNRLIWAVSSTSNIESYDVLELKDGRVFAHYSQPQWLGQ"
reported_value = "failed"

[[record]]
record_sequence = "MLQKPVQLLLWVAICLLVLLTVYVFFMLDMLWSPFWLVIKTIFIPLIISIFISYLLLPVTEWLHGKGLPRTLSILVIYVLFFGGIGWALYKGVPVLIVQLTDLSENIPMFAETYNGLLLHVHNHTDDWPDGMHHRIDKMIRQTEAFFAGTIEGAISGIRNVLDYFLIAATIPFLVFYMVKDIELMKKTVWYLTPKSWRKRGSAFLRDVDDSLGDYIRGQLLVCLILGVIAGISFWVFGLPYPLILGLISGVTNVIPYFGPFIGAVPALLIAMTISVKAVLVVVITVFILQFMEGNILSPFIVGRSLKMHPVVIMLALLAGGELAGIVGMILAVPATAVLKVMMIHFLRMRTEH"
reported_value = "not failed"


Below: the item to evaluate.
Query block: Given the entry `MPMKSWIKTLLITLLAAALCLLFARVVLPPLLVQLIPPSWEGGPWFWVNLLLAGFLAGLVVAPLLRTRRYYPVPLLLLLSVLVVVGNWAQNRCNDAQLQAIEQLERRSASHSNLGISNEEPAPSAPVDVSATPGVWAHEQGDGYGYSCNRPGETQGFLMPQLMSFGINVLGLLLALLIGPGRRRAR` , report its measured protein production.
Result block: failed

###

method-notes: label from the status in PepcDB records
measurement-kind: protein production

[[record]]
record_sequence = "MTRRALFGPKVAPLIQAASLTLALLLFLAACGPKGSYENVGPEELYEALAAGALVVDVRTPGEFAQGHVPGAINLPVEEVARWADRIPKDRPVYLYCRSGNRSRKAAEYLARKGYTNLYNVEGGVLAIARAGYPLVR"
measurement_kind = "protein production"
reported_value = "failed"

[[record]]
record_sequence = "VVEFTTCPDKPGIPVKPSVKGKIHSHSFKITWDPPKDNGGATINKYVVEMAEGSNGNKWEMIYSGATREHLCDRLNPGCFYRLRVYCISDGGQSAVSESLLVQTPAV"
measurement_kind = "protein production"
reported_value = "not failed"

[[record]]
record_sequence = "MTSTCTICERIKLIQAHQNPYFVYELTTGYVVLADSQYFEGYTLFLAKHHVTELHHLPAHEKLRYLEEMSIVQEACAQAFHADKMNIELLGNGDAHVHWHLFPRHNGDTPNPGPVWWTPLETIYGDDVSLDIPRLSRLKRTLSVAIEATLNAREAELQALEALTRPASHRIDSN"
measurement_kind = "protein production"
reported_value = "failed"

[[record]]
record_sequence = "EGLDYLTAPNPPSIREELCTASHDTITVHWISDDEFSISSYELQYTIFTGQANFISLYNSVDSWMIVPNIKQNHYTVHGLQSGTRYIFIVKAINQAGSRNSEPTRLKTNSQPFK"
measurement_kind = "protein production"
reported_value = "not failed"

[[record]]
record_sequence = "MQFPSIEDLRARNTMKWTRYGQGVLPLWVAESDFSTCPAVLQAITDAVQREAFGYQPDGSLLSQATAEFYADRYGYQARPEWIFPIPDVVRGLYIAIDHFTPAQSKVIVPTPAYPPFFHLLSATQREGIFIDATGGINLHDVEKGFQAGARSILLCNPYNPLGMVFAPEWLNELCDLAHRYDARVLVDEIHAPLVFDGQHTVAAGVSDTAASVCITITAPSKAWNIAGLKCAQIIFSNPSDAEHWQQLSPVIKDGASTLGLIAAEAAYRYGTDFLNQEVAYLKNNHDFLLHEIPKRIPGAKITPMQATYLMWIDFRDTTIEGSPSEFFIEKAKVAMNDGAWFGEDGTGFCRLNFATSREVLEEAIDRMAKAVSHHT"
measurement_kind = "protein production"
reported_value = "not failed"


Query block: Given the entry `MAAPELLIPWADFLLCVALIAVAGNRLSRYGDVIAEKTGLSGSWIGLILLATATSLPELITGAAAVTAAGAPDIAAGDVLGSCVFNLVILVALDFLHRHESVYRRASQGHLLSAGFGIILLGLVGVNLLLADKHIVPTLGWVGLYSPLLGLLYLFSMRAVFLYEREQMAAFTEDMTEQYPGIRLRRAVMWYVAVAAVVVGAGVWLPSIGTTLAEVMGWNKSFVGTLFVAAATSMPELSVTIGAVRIRAVDMAIANLLGSNLFDLCILAIDDLAYLPGPLLSHVSSVHALSAFSAMVMTGIFIVGLLYRAGTRLFKTVGWVSIALLLVYLGNAYVLYLYDK` , report its measured protein production.
Result block: failed

Query block: Given the entry `MGALRGRWAEEEALRFLLGKGYRLLWRNRRTPFGEVDLFMEKDGVYVVVEVKQRASARFGAPLEAITPGKVRRLLQSARFLLGRDDLPVRLEAVLVHGTPKDFRLEHLVLEL` , report its measured protein production.
Result block: failed

Query block: Given the entry `MSELNLSPDKLTVLLMGGSFGAGNIKETLDELLDTDRDFQILVITGKNESLKEKIEKKLMSRYHDKNVCVLGYTDKMNDILASIDVLVSKPGGLTTTEALLKDVPMIVPYYIPGQEEENLDFLSNCGAALRTTKKYNLSILLKVLIDDPSRLEMLKRNIKSIRKSNSAQNIANLILNIISGLEHHHHHH` , report its measured protein production.
Result block: failed

Query block: Given the entry `SSVVKSIELVLPEDRIYLAGSSIKGQVILTLNSTLVDPIVKVELVGRGYVEWSEEAGASCDYSRNVICNNKADYVHKTKTFPVEDNWLSAGSHTFDFHFNLPPRLPSTFTSKFGHVFYFVQASCMGREHILAKKRMYLLVQGTSTFHKETPFQNPLFVEAEEKVSYNCCRQGTVCLQIQMERNTFTPGEKVVFTTEINNQTSKCIKTVVFALYAHIQYEGFTPSAERRSRLDSSELLRQEANTPVTRFNTTKVVSTFNLPLLLSVSSSTQDGEIMHTRYELVTTVHLPWSLTSLKAKVPIIITSASVDSAICQLSEDGVLPVNPDHQN` , report its measured protein production.
Result block: not failed

Query block: Given the entry `MLSYPGELQGCRVILYLVGHHLYLIPTTISMCGCPEEGAYMRRLWGYISIITATIFFGISATLDKIMLSSMHPVTIGAYTYIIAGIFLFFIRETPLREHVLNAINRKGESEARIKRNDYLILLLTALLSTVIAPLLFLTGLGDTTAVNASLILNVEVLFIILLGYLIFRETLQLKDFLGIVLIILGAVYLLTEGDFSTILRNVAVTGNFLVMAAAFFWSLDTVLSKFLSRKRDLIFISGVKSSVGGFVLLIIMLILGINTELPLEMLPYALGVSVFSIGCSFILIYIAIREIGASMVGALFPLSSLFGAIFAFIILREPFSIMQGISGIVMLTGVFILYWNGK` , report its measured protein production.
Result block: failed

Query block: Given the entry `MARMKARSGKGRRVARDTWKTKSWYEIRTPQSFGGDLLGTTPANDPSNLLGRVTETSLKDLTNDHSKHMVRLYFKVDGVAGNNATTQFVGHNTTREYLKSLVRRRRSKIVTITDIRTKDGYKIRVKAMVLTAVRARDHHKTDIRKKMEQIIVNMARNSTFPEFVQAMLLGGLGSKIYATCKRIMPMKRVEIYKSEVMEFGKSATPVVEAPAETEVKEEVKKEVVETQTE` , report its measured protein production.
Result block: failed

Query block: Given the entry `VAITDNRGVITHVNEKFCDISQYEYYELVGTTHKIINSGFHPRSFFKQMWKTIAQGNIWKGEICNRTKQGKLYWVDTTIVPLKDNDGLLKNYISIRTDITQ` , report its measured protein production.
Result block: failed

Query block: Given the entry `MSYGLIIVLMIILGIGLWHTKKYHRAVVNQVAHVWITKNAFEHTALGMAIVSPDCRFLKVNRAYGEITGYTRPELLKMAVKELTHPEDQEKDTPYLQEVFAGNIHSFTTVKRYIHKNGSTIWVRSTISAVRTERGNLKYFVLEHHHHHH` , report its measured protein production.
Result block: failed
